Recorded measurements of IC50, one per entry
tested.system: T1, HLA-DR5 (DRB1*11011), purified from SWEIG cells (human)
T1 chain 1: not shown
T1 chain 2: not shown
test.method.notes: 125I-peptide inhibition, purified class II
Non-standard residues stand in square brackets, D forms with d. No end group written: not given here. Cha = N[C@@H](CC1CCCCC1)C(=O)O
Provide the reading as a plain figure in nM.

Record excerpt, results attached:
Problem: Which value of IC50 has been reported for [dA]A[Cha]IAAATLKAA[dA] [906.11] in the records?
Solution: 2.4

Problem: Which value of IC50 has been reported for AKFVAAWTLKAAA (modifications not checked) [1024.03] in the records?
Solution: 18

Switching to the query record.
Problem: Which value of IC50 has been reported for [dA]A[Cha]AAAKTAAAA[dA] [760.50] in the records?
Solution: 6.1
